Assay: viability loss with induced miR-34 in A549 – imaging, A549 dox-inducible miR-34, nuclei and caspase counts, primary screen (AID 1347080)
Conditions: A549 miR-34 inducible, Hoechst nuclei count, 48 h; measured here: relative caspase fold change +Dox/-Dox
readout_type: fold change
One number for each entry.

{"columns": ["molecule", "fold change"],
 "data": [
  ["CCCCC[C@H](O)/C=C/[C@@H]1[C@H]2C[C@H](CCCCC(=O)O)O[C@H]2C[C@H]1O", 1.41],
  ["COC(=O)Nc1ccc(-c2nc(N3CCOCC3)c3cnn(C4CCN(C(=O)OC)CC4)c3n2)cc1", 0.692],
  ["CCc1ccc(/C=C2/SC(=S)NC2=O)cc1", 1.81],
  ["CC/C=C\\C/C=C\\C/C=C\\C/C=C\\C/C=C\\C/C=C\\CCC(=O)NCCO", 0.411],
  ["Nc1nc2c([nH]c(=O)n2[C@H]2C[C@H](O)[C@@H](CO)O2)c(=O)[nH]1", 1.18]
]}

For every record below, what is its fold change?
1. Cc1ccccc1C(C(=O)NC1CCCCC1)N(C(=O)Cn1ccnc1C)c1cccc(F)c1 (stereo not drawn)
2. CCCCCCCCCCCCCCCCOC[C@H](COP(=O)([O-])OCC[N+](C)(C)C)OCC
3. Cc1csc(-c2nnc(Nc3ccc(Oc4ncccc4-c4ccnc(N)n4)cc3)c3ccccc23)c1
4. O=c1ncn2nc(Sc3ccc(F)cc3F)ccc2c1-c1c(Cl)cccc1Cl
5. Cc1cc(Nc2ncnc3ccc(-c4ccc(CNCCS(C)(=O)=O)o4)cc23)ccc1Oc1ccn2ncnc2c1
6. N[C@@H](CC(=O)Nc1ccc(Oc2cc(F)c(F)cc2Br)cc1)C(=O)O

// result
1. 0.447
2. 1.05
3. 0.556
4. 1.87
5. 1.06
6. 1.1

====

Test: drug combination growth inhibition, ovarian cancer – cell-based, oncology-focused library, rucaparib conditional, profiling panel (AID 1508598)
Conditions: patient-derived ovarian cancer cells, CellTiter-Glo viability, 144 h; at 0.00488 µM; OCI-P5x cells; without rucaparib; stronger effect = lower value
readout_type: viability (%)
Answers are plain numbers, in %.

{"columns": ["compound", "readout_type", "recorded_number"],
 "data": [
  ["Oc1cccc(-c2nc(N3CCOCC3)c3oc4ncccc4c3n2)c1", "viability", 103],
  ["Cc1ccc(NC(=O)c2cccc(C(C)(C)C#N)c2)cc1Nc1ccc2ncn(C)c(=O)c2c1", "viability", 99.1],
  ["Cc1cnc(-c2ccccc2C(C)C)nc1NCc1ccc(-n2ccnn2)cc1", "viability", 102],
  ["COc1ccc(C2=NC(c3ccc(Cl)cc3)C(c3ccc(Cl)cc3)N2C(=O)N2CCNC(=O)C2)c(OC(C)C)c1 (stereo not given)", "viability", 91.7]
]}

Please find the next compound below.
// query Recall and state the measured viability for `C[C@@H](Oc1cc(-n2cnc3ccc(CN4CCN(C)CC4)cc32)sc1C(N)=O)c1ccccc1C(F)(F)F` .
// result 18

====

Experiment: growth inhibition of DIPG cells – cell-based, MIPE4.0 library, CellTiter-Glo luminescence, qHTS (AID 1347066);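 further: cells exposed to compound for 48 hours before readout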
Settings: SU-DIPG-VI viability, CellTiter-Glo ATP luminescence
Results filed as inconclusive are left out. Calls of active or inactive are those of the source. The limit is not given here; nearly all actives have AC50 up to about 30 µM.
readout_type: AC50

{"columns": ["smiles_text", "result"],
 "data": [
  ["CN1CCN(c2ccc3nc(-c4c(N)c5c(F)cccc5[nH]c4=O)[nH]c3c2)CC1", "20.9 µM (active)"],
  ["Cc1cnc(Nc2ccc(OCCN3CCCC3)cc2)nc1Nc1cccc(S(=O)(=O)NC(C)(C)C)c1", "inactive"],
  ["NC(N)=Nc1nc(CSCCC(N)=NS(N)(=O)=O)cs1", "inactive"],
  ["CC(=O)OCC(=O)[C@@]1(O)[C@H](C)C[C@H]2[C@@H]3C=C(C)C4=Cc5c(cnn5-c5ccccc5)C[C@]4(C)[C@H]3[C@@H](O)C[C@@]21C", "26.4 µM (active)"],
  ["COc1ccc(Nc2cc(-c3cnc(N)nc3)nc(N3CCOCC3)n2)cn1", "4.18 µM (active)"],
  ["O=C(Nc1cc(Cl)cc2c1[nH]c1cnccc12)c1cccnc1", "inactive"]
]}

For every record below, what is its AC50?
1. CC1(C)CCC2=C(O1)c1ccccc1C(=O)C2=O
2. CCOC(=O)N1CCN(/[N+]([O-])=N/Oc2ccc([N+](=O)[O-])cc2[N+](=O)[O-])CC1

// result
20.9 µM (active)
10.5 µM (active)

// query Recall and state the measured AC50 for `CN[C@@H](C)[C@H]1[C@H](O)C[C@@]2(C)[C@@H]3CC[C@H]4C(C)(C)[C@@H](NC)CC[C@@]45C[C@@]35CC[C@]12C` .
// result inactive

====

Exercise: state measured fold change for each of the molecules provided.
Experiment: viability loss with induced miR-34 in A549 – imaging, A549 dox-inducible miR-34, nuclei and caspase counts, primary screen (AID 1347080)
Conditions: A549 miR-34 inducible, Hoechst nuclei count, 48 h; measured here: relative caspase fold change +Dox/-Dox
Numbers only.

// below: answered molecules
{"columns": ["smiles_text", "fold change"],
 "data": [
  ["O=C1O/C(=C/Br)CC[C@@H]1c1cccc2ccccc12", 0.986],
  ["CN(C)Cc1c(C(=O)NCCOc2ccc(C(=O)NO)cc2)oc2ccccc12", 0.9],
  ["COc1c(O)c2c(=O)cc(OC)c3c4c(OC)cc(=O)c5c(O)c(OC)c(C[C@@H](C)OC(=O)c6ccccc6)c(c(c1C[C@@H](C)OC(=O)Oc1ccc(O)cc1)c23)c54", 0.723],
  ["c1ccc(N2CCN(CCCOc3ccc4c(c3)OCO4)CC2)cc1", 0.762],
  ["CC/C=C\\C/C=C\\C/C=C\\CCCCCCCC(=O)NCCO", 0.865]
]}

// query Recall and state the measured fold change for `CC(C)n1nnc2cc(C(=O)O)ccc21` .
// result 1.97

====

Test: growth inhibition of DIPG cells – cell-based, MIPE5.0 library, qHTS (AID 1347068);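 on IC50: cells exposed to compound for 48 hours before viability readout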
Conditions: SU-DIPG-XXV viability
Records with an inconclusive call do not appear. Calls of active or inactive are those of the source. The limit is not given here; nearly all actives have IC50 up to about 30 µM. Bridge positions count the residues as written; N and C are the ends. Square brackets hold non-standard residues; d marks the D form. Peptide text beside a SMILES is read from it. * marks the point of attachment. X2 = CCC(C)C(N)C1=NC(C(=O)*)CS1; dOrn = NCCC[C@@H](N)C(=O)O
readout_type: IC50

// below: answered compounds
{"columns": ["compound", "result"],
 "data": [
  ["CC(C)[C@H](O)C(=O)N[C@@H](C)C(=O)N[C@@H]1C(=O)N(C)CCc2ccccc21", "inactive"],
  ["COc1c(OCCCN2CCOCC2)ccc2c3n(c(=NC(=O)c4cnc(N)nc4)nc12)CCN3", "0.382 µM (active)"],
  ["C[C@@H]1CC2C3C[C@H](F)C4=CC(=O)C=C[C@]4(C)[C@@]3(F)[C@@H](O)C[C@]2(C)[C@@]1(OC(=O)c1ccco1)C(=O)SCF (stereo partly drawn)", "inactive"],
  ["CCC(C)C(N)C1=NC(C(=O)N[C@@H](CC(C)C)C(=O)N[C@H](CCC(=O)O)C(=O)N[C@H](C(=O)N[C@H]2CCCCNC(=O)[C@H](CC(N)=O)NC(=O)[C@@H](CC(=O)O)NC(=O)[C@H](Cc3cnc[nH]3)NC(=O)[C@@H](Cc3ccccc3)NC(=O)[C@H]([C@@H](C)CC)NC(=O)[C@@H](CCCN)NC2=O)[C@@H](C)CC)CS1 (stereo partly drawn) (X2-L[dE]IK[dOrn]I[dF]H[dD]N; lactam 4-C)", "inactive"],
  ["O=C1NCCc2[nH]c(-c3ccncc3)cc21", "5.25 µM (active)"],
  ["CCCC(CCC)C(=O)Nc1ccn([C@@H]2O[C@H](CO)[C@@H](O)C2(F)F)c(=O)n1", "inactive"],
  ["C=CC(=O)Nc1cccc(Oc2nc(Nc3ccc(N4CCN(C)CC4)c(F)c3)nc3[nH]ccc23)c1", "0.833 µM (active)"]
]}

// query Recall and state the measured IC50 for `CCOC(=O)CCNc1cc(N2CCc3ccccc3CC2)nc(-c2ccccn2)n1` .
// result 8.33 µM (active)

====

Exercise: state measured inhibition for each of the compounds provided.
Test: growth inhibition, single agents and combos, ICB984, cell-based, cisplatin or BGB combos, synergistic combos for chromothripsis tumors (AID 1671451);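 further: cells exposed for 96 hours before readout; 0% = vehicle DMSO and 100% = killing by high DMSO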
Details: ICB984 medulloblastoma cells, drug combinations, BGB IC20 combo, at 0.005 µM, stronger effect = higher value
Answers are plain numbers, in %.

// below: answered compounds
{"columns": ["smiles_text", "recorded_number"],
 "data": [
  ["COc1cc(C=O)c([N+](=O)[O-])cc1OC", -9.07],
  ["O=C(O)[C@H](Cc1c[nH]c2ccccc12)N1C(=O)c2ccccc2C1=O", 2.36],
  ["CO[C@H]1/C=C/O[C@@]2(C)Oc3c(C)c(O)c4c(O)c(c(/C=N\\N5CCN(C6CCCC6)CC5)c(O)c4c3C2=O)NC(=O)/C(C)=C\\C=C\\[C@H](C)[C@H](O)[C@@H](C)[C@@H](O)[C@@H](C)[C@H](OC(C)=O)[C@@H]1C", -21.8],
  ["NCCOc1cc(C(=O)Nc2cc(OCCN)c3ccccc3n2)nc(C(=O)Nc2cc(OCCN)c3ccccc3n2)c1", -1.03]
]}

For every record below, what is its inhibition?
1. CN(C)c1ccc(C(=O)NCCCCCCC(=O)NO)cc1
2. O=C(O)CO.[NH2-].[NH2-].[Pt+2]
3. Cc1ccc2nc(NCCN)c3ncc(C)n3c2c1
4. O=c1cc(N2CCOCC2)oc2c(-c3cccc4c3sc3ccccc34)cccc12
5. N=C1CCCN1Cc1[nH]c(=O)[nH]c(=O)c1Cl
6. NC(=O)c1nc(F)c[nH]c1=O

// result
1: 6.17; 2: -33.3; 3: 10.7; 4: -21.3; 5: 12.8; 6: -3.29

Data provenance: PubChem BioAssay
